# credit: ChEMBL document CHEMBL1147700

The following molecules are shown together with reported CL values.
- Tested on: Liver microsomes
- MEASUREMENT_PROTOCOL: Intrinsic clearance in human liver microsomes
- Format: ADME, Microsome

# CHEM_SMILES, CL
records = [
    ("Cc1ccc(-c2cc(Br)ccc2OCc2ccccc2)n1-c1cccc(C(=O)O)c1", "1.8 mL/min/g"),
    ("O=C(O)c1cccc(-c2ccccc2-c2cc(Cl)ccc2OCc2ccccc2)c1", "< 0.5 mL/min/g"),
    ("O=C(O)c1cccc(-c2ncccc2-c2cc(Cl)ccc2OCc2ccccc2)c1", "< 0.5 mL/min/g"),
]
